# system: T1, rhesus CD11a (rhesus, UniProt H9Z8N3 26-1169)
# T1 construct: whole, on cells; also called rhCD11a
# T1 sequence: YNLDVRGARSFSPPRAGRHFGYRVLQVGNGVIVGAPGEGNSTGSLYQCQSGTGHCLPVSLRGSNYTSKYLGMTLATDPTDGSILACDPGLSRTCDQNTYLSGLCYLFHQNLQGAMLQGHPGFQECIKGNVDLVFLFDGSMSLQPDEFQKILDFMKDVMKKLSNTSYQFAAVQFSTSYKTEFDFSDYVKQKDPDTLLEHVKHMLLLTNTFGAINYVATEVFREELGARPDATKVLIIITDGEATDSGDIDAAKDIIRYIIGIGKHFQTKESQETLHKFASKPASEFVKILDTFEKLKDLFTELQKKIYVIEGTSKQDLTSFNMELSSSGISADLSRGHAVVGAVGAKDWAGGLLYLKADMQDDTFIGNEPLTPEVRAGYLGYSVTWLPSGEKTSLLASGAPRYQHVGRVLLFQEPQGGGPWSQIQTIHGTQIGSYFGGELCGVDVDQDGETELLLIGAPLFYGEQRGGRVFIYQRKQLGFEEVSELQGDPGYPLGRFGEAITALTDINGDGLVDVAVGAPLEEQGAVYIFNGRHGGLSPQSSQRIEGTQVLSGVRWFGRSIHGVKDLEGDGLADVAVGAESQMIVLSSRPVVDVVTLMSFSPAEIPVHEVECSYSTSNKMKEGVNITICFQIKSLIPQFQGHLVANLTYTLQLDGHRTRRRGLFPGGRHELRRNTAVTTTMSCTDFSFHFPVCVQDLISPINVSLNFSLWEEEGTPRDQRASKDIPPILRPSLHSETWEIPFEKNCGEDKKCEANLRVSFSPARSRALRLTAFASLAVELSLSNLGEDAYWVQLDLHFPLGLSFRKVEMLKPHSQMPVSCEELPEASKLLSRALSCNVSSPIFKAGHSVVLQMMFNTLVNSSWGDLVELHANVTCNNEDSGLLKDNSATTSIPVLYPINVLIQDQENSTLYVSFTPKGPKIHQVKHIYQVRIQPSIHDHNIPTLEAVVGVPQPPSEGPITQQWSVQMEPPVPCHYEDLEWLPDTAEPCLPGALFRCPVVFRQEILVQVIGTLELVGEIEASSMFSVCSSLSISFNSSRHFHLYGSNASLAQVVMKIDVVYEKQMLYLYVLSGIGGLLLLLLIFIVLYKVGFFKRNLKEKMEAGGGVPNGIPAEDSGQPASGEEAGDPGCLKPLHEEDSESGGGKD
# assay notes: binding to rhesus peripheral blood lymphocytes; ratio to HuIgG1 EC50 (45.6 nM)
readout type: Variant EC50/HuIgG1 EC50 (ratio)

>>> observed("AspH54Gln (antibody, human IgG1, V domains shown, HuIgG1 variant (human IgG1); also called AspH54 change to Gln) VH: EVQLVESGGGLVQPGGSLRLSCAASGYSFTGHWMNWVRQAPGKGLEWVGMIHPSQSETRYNQKFKDRFTISVDKSKNTLYLQMNSLRAEDTAVYYCARGIYFYGTTYFDYWGQGTLVTVSS VL: DIQMTQSPSSLSASVGDRVTITCRASKTISKYLAWYQQKPGKAPKLLIYSGSTLQSGVPSRFSGSGSGTDFTLTISSLQPEDFATYYCQQHNEYPLTFGQGTKVEIK")
4.4
>>> observed("AspH54Ser (antibody, human IgG1, V domains shown, HuIgG1 variant (human IgG1); also called AspH54 change to Ser) VH: EVQLVESGGGLVQPGGSLRLSCAASGYSFTGHWMNWVRQAPGKGLEWVGMIHPSSSETRYNQKFKDRFTISVDKSKNTLYLQMNSLRAEDTAVYYCARGIYFYGTTYFDYWGQGTLVTVSS VL: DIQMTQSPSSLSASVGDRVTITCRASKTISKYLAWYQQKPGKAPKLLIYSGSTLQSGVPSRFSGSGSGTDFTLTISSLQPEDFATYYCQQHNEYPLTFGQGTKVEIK")
0.9
>>> observed("AspH54Lys (antibody, human IgG1, V domains shown, HuIgG1 variant (human IgG1); also called AspH54 change to Lys) VH: EVQLVESGGGLVQPGGSLRLSCAASGYSFTGHWMNWVRQAPGKGLEWVGMIHPSKSETRYNQKFKDRFTISVDKSKNTLYLQMNSLRAEDTAVYYCARGIYFYGTTYFDYWGQGTLVTVSS VL: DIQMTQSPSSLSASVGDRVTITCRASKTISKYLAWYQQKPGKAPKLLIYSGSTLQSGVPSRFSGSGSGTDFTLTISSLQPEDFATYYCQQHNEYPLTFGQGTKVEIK")
3.8

Attribution: patent US20100136005A1
